- EXPERIMENT_SUMMARY: OD615 S. cerevisiae growth inhibition, permissive medium, pilot counter-assay, permissive growth control for S. cerevisiae lifespan shortening project (AID 705)
- RUN_CONDITIONS: OD615, 24 h, at 10 µM, stronger effect = higher value
Activity calls are given as the source filed them.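 Rule for the calls: active = growth inhibition above 25% in both replicates, a cutoff set 3 SD above the mean; inconclusive = above 25% in only one replicate; inactive = the rest.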
QUANTITY: growth inhibition

Input line: Quick one: growth inhibition for C/C(N)=C(/C#N)C(=O)CSc1n[nH]c(-c2ccccc2Br)n1 ?
Output line: -8.32% (inactive)

Input line: Quick one: growth inhibition for Cc1ccc(OCCNC(=O)c2ccco2)cc1C ?
Output line: 0.475% (inactive)

Input line: Quick one: growth inhibition for Cc1cc(NC(=O)CSc2cn(CCNC(=O)c3ccccc3)c3ccccc23)no1 ?
Output line: -3.29% (inactive)

Input line: Quick one: growth inhibition for COc1cccc(C(=O)NCC(c2cccnc2)N2CCN(c3ccccc3OC)CC2)c1 (stereo unspecified) ?
Output line: 1.37% (inactive)

Input line: Quick one: growth inhibition for Cc1ccc(NC(=O)C2CCCN(S(=O)(=O)c3ccc4c(c3)oc(=O)n4C)C2)nc1 (stereo unspecified) ?
Output line: -7.92% (inactive)

Input line: Quick one: growth inhibition for CSC(=NS(=O)(=O)c1ccc(C)cc1)SC ?
Output line: -11% (inactive)

Input line: Quick one: growth inhibition for CCC(C)NC(=O)c1c(-c2cc(Cl)c(OC)c(Cl)c2)noc1C (stereo unspecified) ?
Output line: -15% (inactive)

Input line: Quick one: growth inhibition for Cn1c(-n2c(CCN3C(=O)c4ccccc4C3=O)nc3ccccc3c2=O)nc2ccccc21 ?
Output line: 1.63% (inactive)

Input line: Quick one: growth inhibition for O=C(CCCc1ccccc1)NCCN1CCOCC1 ?
Output line: -12.1% (inactive)

Input line: Quick one: growth inhibition for COC(=O)c1ccccc1NC(=O)CSc1nccn1C ?
Output line: -3.94% (inactive)

Input line: Quick one: growth inhibition for O=C(CCNS(=O)(=O)c1cccc2nonc12)NCc1cccs1 ?
Output line: -0.555% (inactive)

###

Provide the recorded growth inhibition for the entries that follow.
- EXPERIMENT_SUMMARY: Restrictive medium S. cerevisiae growth inhibition, OD615, pilot screen of yeast lifespan reduction project, restrictive growth control (AID 706);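 note: modified DeaD lifespan yeast strain shifted to restrictive glucose medium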
- RUN_CONDITIONS: OD615, 48 h, at 10 µM, stronger effect = higher value
Field: numeric (%). Do not append units.

Input line: Quick one: growth inhibition for C=CCc1ccccc1OCC(O)CN1CCN(c2ccccc2OC)CC1 (stereo not drawn) ?
Output line: -25

Input line: Quick one: growth inhibition for CC(C)COC(=O)C1C2C=CC3(CN(C4CCCC4)C(=O)C13)O2 (stereo not drawn) ?
Output line: -0.515

Input line: Quick one: growth inhibition for CCOC(=O)C1=C(C)Nc2nc(SCc3cccnc3)nn2C1c1ccc(OC)cc1 (stereo not drawn) ?
Output line: 2.46

Input line: Quick one: growth inhibition for C(=N\c1nc2ccccc2n1Cc1ccccc1)/c1cccs1 ?
Output line: -3.94

Input line: Quick one: growth inhibition for CCOC(=O)CNC(=O)c1cn(CC(C)C)c(=O)c2cc(OC)c(OC)cc12 ?
Output line: -6.08

Input line: Quick one: growth inhibition for Cn1c(NCc2ccccc2Cl)nc2ccccc21 ?
Output line: -11.6

Input line: Quick one: growth inhibition for CS(=O)(=O)c1ccc2nc(NC(=O)C3CCCCC3)sc2c1 ?
Output line: -7.79

Input line: Quick one: growth inhibition for Cc1nc(SCC(=O)NCc2ccco2)c2oc3ccccc3c2n1 ?
Output line: 1.3

Input line: Quick one: growth inhibition for O=C(CC1Oc2ccccc2NC1=O)NCc1ccccc1 (stereo not drawn) ?
Output line: -4.32

Input line: Quick one: growth inhibition for CC(NC(=O)Cc1ccccc1)c1nc2ccccc2[nH]1 (stereo not drawn) ?
Output line: -1.91

Input line: Quick one: growth inhibition for O=C(NCCn1ccc2ccccc21)c1ccc2c(c1)OCO2 ?
Output line: -4.68

Input line: Quick one: growth inhibition for COCC(=O)Nc1ccc(C(N)=O)cc1 ?
Output line: -6.43

Input line: Quick one: growth inhibition for O=C(NC1CCN(Cc2ccccc2)CC1)C1CCCN(c2nnc(-n3cccc3)s2)C1 (stereo not drawn) ?
Output line: 11.1

Input line: Quick one: growth inhibition for CCOC(=O)c1c(C)n(C)c2ccc(OCC(O)CN3CCC(C)CC3)cc12 (stereo not drawn) ?
Output line: 4.4

Input line: Quick one: growth inhibition for CCOC(=O)N1CCN(c2c(N3CCOCC3)c(=O)c2=O)CC1 ?
Output line: -13.2

Input line: Quick one: growth inhibition for Cc1onc(-c2c(F)cccc2Cl)c1C(=O)OCC(=O)Nc1c(C)n(C)n(-c2ccccc2)c1=O ?
Output line: -1.53

Input line: Quick one: growth inhibition for CC1Cc2nc(SCC(=O)NCCc3ccccc3)n(C)c(=O)c2S1 (stereo not drawn) ?
Output line: -1.29

Input line: Quick one: growth inhibition for CCOC(=O)c1ccc(NC(=O)c2nn(C)cc2Br)cc1 ?
Output line: -10.1

Input line: Quick one: growth inhibition for COCC(=O)NCCc1nc2ccccc2[nH]1 ?
Output line: 1.45

Input line: Quick one: growth inhibition for CCOC(=O)C1CCCCN1C(=O)CCc1c(C)nc2cc(-c3ccccc3)nn2c1C (stereo not drawn) ?
Output line: -4.46

Input line: Quick one: growth inhibition for COc1cccc2cc3c(=O)n(-c4ccccc4)nc-3oc12 ?
Output line: -20.8

Input line: Quick one: growth inhibition for Nc1c(C(=O)c2ccc(Br)s2)oc2ccccc12 ?
Output line: -4.51

Input line: Quick one: growth inhibition for COc1ccc(-c2cn3c(C)c(C(=O)N4CCN(c5ccccc5F)CC4)sc3n2)cc1 ?
Output line: -0.695

###

- EXPERIMENT_SUMMARY: viability gain of MRP-1-high H69AR cells under doxorubicin, pilot screen, MRP-1 activator project, CellTiter-Glo, duplicate (AID 807);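 note: compound pretreatment 18-22 h then 72 h combined with doxorubicin; 0% = doxorubicin alone and 100% = vehicle without doxorubicin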
- RUN_CONDITIONS: H69AR viability with doxorubicin, CellTiter-Glo luminescence; at 10 µM; stronger effect = higher value
QUANTITY: viability increase (%)
Field: numeric (%). Do not append units.

Input line: Quick one: viability increase for Cc1cc2nc(-c3cccc(NC(=O)c4ccc(Br)o4)c3C)oc2cc1C ?
Output line: 3.53

Input line: Quick one: viability increase for CCOC(=O)C1=C(C)N(C)C(C)=C(C(=O)OCC)C1c1ccccn1 ?
Output line: -0.35

Input line: Quick one: viability increase for CCOC(=O)c1cc2c(=O)n3ccccc3nc2n(C(C)C)c1=NC(=O)c1ccncc1 ?
Output line: -1.27

Input line: Quick one: viability increase for COC(=O)c1nc2cc(C)ccn2c1F ?
Output line: -1.42

Input line: Quick one: viability increase for CCOC(=O)c1nnn(-c2nonc2N)c1CN(C)Cc1ccccc1 ?
Output line: -4.12

Input line: Quick one: viability increase for COc1ccccc1CNC(=O)c1nnc(Cc2ccc(Cl)cc2)o1 ?
Output line: 2.29

Input line: Quick one: viability increase for COc1ccc(NC(=O)Nc2cccc(OC)c2)cc1 ?
Output line: -0.65

Input line: Quick one: viability increase for COc1ccc(C2C3=C(CCCC3=O)Nc3nc(SCc4ccc(C(=O)O)cc4)nn32)cc1OC (stereo not drawn) ?
Output line: -0.88

Input line: Quick one: viability increase for CCC(=O)Nc1nc2c(OC)ccc(OC)c2s1 ?
Output line: -2.87

Input line: Quick one: viability increase for COCCNc1cc(C)nc2c(-c3ccccc3OC)c(C)nn12 ?
Output line: -2.38

Input line: Quick one: viability increase for CC1(C)CC(=O)C(C=NCc2cccnc2)=C(O)C1 ?
Output line: 0.64

Input line: Quick one: viability increase for Cn1c2c(c(=O)n(C)c1=O)C(c1cc3c(cc1Br)OCO3)CC(=O)N2 (stereo not drawn) ?
Output line: -0.66

Input line: Quick one: viability increase for CC(=O)c1ccc(NC(=O)CSc2nnc(Cn3c(=O)sc4ccccc43)n2C)cc1 ?
Output line: -1.49

Input line: Quick one: viability increase for Clc1ccccc1OCCN1CCCCC1 ?
Output line: 0.57

Input line: Quick one: viability increase for Cc1c(NC(=O)CCCCCN2C(=O)C3C4C=CC(C4)C3C2=O)c(=O)n(-c2ccccc2)n1C (stereo not drawn) ?
Output line: -0.51

Input line: Quick one: viability increase for COc1ccc2[nH]cc(CCNC(=O)C3CCCNC3=O)c2c1 (stereo not drawn) ?
Output line: -1.57

Input line: Quick one: viability increase for COC(=O)c1cc(COc2ccc3oc(C)c(C(=O)OC)c3c2)c(C)o1 ?
Output line: 0.77

Input line: Quick one: viability increase for COc1ccccc1-c1coc2cc(O)cc(O)c2c1=O ?
Output line: 0.63

Input line: Quick one: viability increase for COc1ccc(C(=O)N2CCC(C(=O)Nc3ccc(OC)c(OC)c3)CC2)cc1 ?
Output line: -0.38

Input line: Quick one: viability increase for COc1ccc(N2Cc3cccc(C(=O)N4CCN(C(=O)c5ccco5)CC4)c3C2=O)cc1 ?
Output line: -1.86

Input line: Quick one: viability increase for O=C(Cn1cc2c(n1)CCCCC2)Nc1ccc(F)cc1F ?
Output line: 0.49

Input line: Quick one: viability increase for CCCOCCOC(=O)C1=C(C)NC(=O)NC1c1cc(Cl)c(O)c(OC)c1 (stereo not drawn) ?
Output line: -0.57

Input line: Quick one: viability increase for O=S(=O)(c1ccc(Br)cc1)N1CCn2c(nc3ccccc32)C1 ?
Output line: -2.52
